# Tested on: soybean plantlets
# TEST_NAME: High-throughput soybean screening for herbicide tolerance (plantlets)
# Assay type: in vivo, soybean (A3555)
# Parameters: key: 0 for poor tolerance, high damage, low green coloration; 1 for some tolerance, average damage, moderate green coloration; 2 for good tolerance, low damage, high green coloration
# STUDY_CONDITIONS: TP33; S-3100 spray five weeks post-transformation, scored day four
ASSAY_READOUT: coloration score
Returns: the value as a bare number; no unit string appended.

Record summary for H_N100: microbial HemG protoporphyrinogen oxidase, SEQ ID NO:9 (SEQ ID NO:17 lacking start methionine; variant 20) (protein, listed as Enterobacter cloacae) MKTLILFSTRDGQTREIAAFLASELKEQGIYADVINLNRTEEIAWQEYDRVVIGASIRYGHFHPAVDRFVKKHTETLNSLPGAFFSVNLVARKAEKRTPQTNSYTRKFLLNSPWKPAACAVFAGALRYPRYRWYDRFMIRLIMKMTGGETDTRKEVVYTDWSQVASFAREIVQLTRSSRL : reported coloration score = 1
